Molecular target: T1, naked peptide YCEKNNVRQF (human)
T1 peptide: YCEKNNVRQF
Experiment: ELISA naked peptide; scFv 1 ug/mL; repI
Property: OD450; scope: individual binders
Report the value in OD with no unit label.

Use the examples below as a reference point.
| binder | output unit | reported measurement |
| --- | --- | --- |
| Comparative antibody 2 (Comp-2) scFv, 243LO326 (VH SEQ ID NO: 51 and VL SEQ ID NO: 52 of WO 2022/195028 A2), His-tagged (scFv) scFv: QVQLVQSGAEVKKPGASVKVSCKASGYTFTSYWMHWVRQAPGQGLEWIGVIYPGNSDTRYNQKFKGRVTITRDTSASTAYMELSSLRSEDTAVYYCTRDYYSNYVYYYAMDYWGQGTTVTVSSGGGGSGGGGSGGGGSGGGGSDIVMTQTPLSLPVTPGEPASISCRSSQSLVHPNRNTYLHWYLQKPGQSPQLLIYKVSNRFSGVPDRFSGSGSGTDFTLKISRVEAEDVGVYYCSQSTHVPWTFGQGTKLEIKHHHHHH | OD | 0.05 |
| Comparative antibody 1 (Comp-1) scFv, SEQ ID NO: 10 from WO2023/037125 A1, His-tagged (scFv) scFv: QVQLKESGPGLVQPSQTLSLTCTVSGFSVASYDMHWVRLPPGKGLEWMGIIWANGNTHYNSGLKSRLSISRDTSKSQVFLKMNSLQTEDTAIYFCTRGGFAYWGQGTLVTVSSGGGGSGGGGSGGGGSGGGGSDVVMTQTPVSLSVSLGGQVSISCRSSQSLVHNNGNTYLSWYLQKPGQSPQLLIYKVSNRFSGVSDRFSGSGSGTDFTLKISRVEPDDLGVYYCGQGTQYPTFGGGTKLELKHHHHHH | OD | 0.02 |
| Comparative antibody 3 (Comp-3) scFv, SR_92R (Somovilla-Crespo et al. 2018), His-tagged (scFv) scFv: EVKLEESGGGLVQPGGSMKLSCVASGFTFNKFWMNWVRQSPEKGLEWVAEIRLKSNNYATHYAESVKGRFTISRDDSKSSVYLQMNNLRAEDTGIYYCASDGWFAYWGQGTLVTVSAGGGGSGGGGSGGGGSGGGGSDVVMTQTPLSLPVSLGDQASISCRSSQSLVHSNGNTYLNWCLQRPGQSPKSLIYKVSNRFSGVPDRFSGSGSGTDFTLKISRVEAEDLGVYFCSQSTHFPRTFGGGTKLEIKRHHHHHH | OD | 0.04 |

IN: Quickly give me recorded OD450 for CCR9_HUM2 scFv (humanized anti-CCR9 scFv, SEQ ID NO: 17 with C-terminal 6xHis tag) (scFv) scFv: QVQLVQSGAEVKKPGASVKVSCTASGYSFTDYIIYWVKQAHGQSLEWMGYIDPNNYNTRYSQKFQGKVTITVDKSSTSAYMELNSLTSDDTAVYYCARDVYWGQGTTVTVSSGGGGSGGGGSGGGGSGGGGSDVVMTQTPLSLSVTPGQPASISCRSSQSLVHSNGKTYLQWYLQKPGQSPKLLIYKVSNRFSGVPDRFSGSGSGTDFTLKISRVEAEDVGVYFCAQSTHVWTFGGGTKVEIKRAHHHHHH
OUT: 0.04
